tested on: VP-MCC cell lines (WAGA, MKL-1, MKL-2); assay: qHTS cell viability, VP-MCC cell lines as a group (mean AUC, VP.MCC.avg); type: cell-based, human
Counter-ions that a name gives are not always drawn.
Quantity Name: VP-MCC_Avg_AUC

QUERY: Dear colleague, I am looking for the recorded VP-MCC_Avg_AUC of the following compound: COc1ccc2c3c1O[C@H]1[C@@H](O)C=C[C@H]4[C@@H](C2)N(C)CC[C@@]341 [Codeine hydrochloride]
RESULT: 346.415

QUERY: Ok, now Cl.Oc1ccc2c3c1O[C@H]1[C@@H](O)C=C[C@H]4[C@@H](C2)NCC[C@@]341 [N-Normorphine hydrochloride]
RESULT: 417.339

QUERY: Ok, now `N[C@@H](Cc1ccc(N(CCCl)CCCl)cc1)C(=O)O`
RESULT: 393.574

QUERY: Ok, now `CN(C)CCc1c[nH]c2ccc(O)cc12`
RESULT: 426.671

QUERY: Ok, now `CC(C)(O)/C=C/C(=O)[C@](C)(O)[C@H]1[C@H](O)C[C@@]2(C)[C@@H]3CC=C4[C@@H](C=C(O)C(=O)C4(C)C)[C@]3(C)C(=O)C[C@]12C`
RESULT: 205.024

QUERY: Ok, now COc1cc(NC(C)CCCN)c2ncccc2c1 (stereo not drawn) [Primaquine diphosphate]
RESULT: 409.912

QUERY: Ok, now `Cc1ccc([N+](=O)[O-])[c]2c1[O][Hg]2`
RESULT: 254.131

QUERY: Ok, now `CN(C)C(=O)Nc1ccc(Cl)c(Cl)c1`
RESULT: 194.692

QUERY: Ok, now CCN(CC)CCc1c[nH]c2ccccc12.O=C(O)/C=C/C(=O)O [N,N-Diethyltryptamine fumarate]
RESULT: 446.639

QUERY: Ok, now CCCN(CCC)CCc1c[nH]c2ccccc12.Cl [N,N-Dipropyltryptamine hydrochloride]
RESULT: 409.358

QUERY: Ok, now `CCC(=O)OC1(c2ccccc2)CCN(C)CC1.Cl`
RESULT: 413.6

QUERY: Ok, now CC(Cc1ccccc1)NCCn1cnc2c1c(=O)n(C)c(=O)n2C (stereo not drawn) [Fenethylline hydrochloride]
RESULT: 425.75

QUERY: Ok, now CC(O)C(=O)O.CCOc1ccc2nc3cc(N)ccc3c(N)c2c1.O [Ethacridine lactate hydrate]
RESULT: 361.054

###

CRL7250_AUC reference
system: CRL-7250 cells; assay: qHTS cell viability (CellTiter-Glo, 72 h; primary screen), control cell line; type: cell-based; settings: MIPE library, 11-point DRC, control cell line, sheet S2E

Some entries whose results are on file:
Compound	Reported Value
C=Cc1c(C)c2cc3nc(cc4[nH]c(cc5nc(cc1[nH]2)C(C)=C5CCC(=O)O)c(CCC(=O)OC)c4C)[C@@]1(C)C3=CC=C(C(=O)OC)[C@H]1C(=O)OC	465.081
CC(C)(C)OC(=O)Nc1ccc(-c2cc(C(=O)NCCCCCCC(=O)NO)no2)cc1	411.627
CC1(C)CCC(c2ccc(Cl)cc2)=C(CN2CCN(c3ccc(C(=O)N[S+](=O)([O-])c4ccc(N[C@H](CCN5CCOCC5)CSc5ccccc5)c([S+](=O)([O-])C(F)(F)F)c4)cc3)CC2)C1	467.721
CC(=O)O[C@]1(C(C)=O)CC[C@H]2[C@@H]3C=C(C)C4=CC(=O)CC[C@]4(C)[C@H]3CC[C@@]21C [Megestrol acetate]	475.825

QUERY: Dear colleague, I am looking for the recorded CRL7250_AUC of the following compound: O=C(CCCCCCC(=O)Nc1cccnc1)NO [Pyroxamide]
RESULT: 459.817

QUERY: Ok, now C=C1/C(=C\C=C2/CCC[C@]3(C)[C@@H]([C@H](C)/C=C/[C@H](C)C(C)C)CC[C@@H]23)C[C@@H](O)C[C@@H]1O [1-alpha-Hydroxyergocalciferol]
RESULT: 418.5

QUERY: Ok, now `COc1ccc(C(=O)CC(=O)c2ccc(C(C)(C)C)cc2)cc1`
RESULT: 416.272

QUERY: Ok, now C=CC(=O)Nc1cccc(Nc2nc(NC3CCC(N(C)C)CC3)nc3c2ncn3C(C)C)c1 (centres unmarked)
RESULT: 274.567

###

tested on: MCC13 cells (VN-MCC); assay: qHTS cell viability (CellTiter-Glo, 72 h; primary and follow-up small molecule screen); format: cell-based, human
Area under the dose-response curve (AUC) MCC13 Replicate 2 reference
Would you mind answering with just the numeric figure?

Some entries whose results are on file:
Molecule	Reported Value
CN(C)c1ccc(C(=C2C=CC(=[N+](C)C)C=C2)c2ccccc2)cc1.CN(C)c1ccc(C(=C2C=CC(=[N+](C)C)C=C2)c2ccccc2)cc1.O=C(O)C(=O)O.O=C([O-])C(=O)O.O=C([O-])C(=O)O [Malachite green oxalate]	297.6
CCC(=O)CCCCC[C@@H]1NC(=O)[C@H]2CCCCN2C(=O)[C@H]([C@@H](C)CC)NC(=O)[C@H](Cc2cn(OC)c3ccccc23)NC1=O	341.2

Lab note: next molecule to report on.
QUERY: Dear colleague, I am looking for the recorded Area under the dose-response curve (AUC) MCC13 Replicate 2 of the following molecule: `CC(=O)C1=C(O)[C@@H]2[C@H]3c4c[nH]c5cccc(c45)C[C@H]3C(C)(C)N2C1=O`
RESULT: 488.6

###

assay: qHTS cell viability (CellTiter-Glo, 72 h; primary screen), control cell line; assay type: cell-based, human; conditions: human, HEK293T cells; HEK293T, Log (M) -8.63055; read-out: Percent viability
Quantity Name: viability at 72 h, 2.34 nM (%)
Give your result in % as a bare value.

QUERY: Dear colleague, I am looking for the recorded viability at 72 h, 2.34 nM of the following compound: COCCn1c2c([n+](Cc3cnccn3)c1C)C(=O)c1ccccc1C2=O [sepantronium bromide, reference compound]
RESULT: 100

###

test system: WAGA cells (VP-MCC); experiment: qHTS cell viability (CellTiter-Glo, 72 h; primary and follow-up small molecule screen); format: cell-based, human
Structures can show the parent of a compound that is named as a salt.
Note to self: WAGA_AUC under 400 means condition met, ties and anything higher get condition not met.

Solved entries:
>>> print(df.to_string())
                                   compound         assay_target        label_value
0  C=CCC1([C@H](C)CCC)C(=O)NC(=O)NC1=O [S-(-)-Secobarbital]  WAGA cells (VP-MCC)  condition not met
1  CC(C)(O)/C=C/C(=O)[C@](C)(O)[C@H]1[C@H](O)C[C@@]2(C)[C@@H]3CC=C4[C@@H](C=C(O)C(=O)C4(C)C)[C@]3(C)C(=O)C[C@]12C  WAGA cells (VP-MCC)      condition met
2  CCCN(CCC)CCc1c[nH]c2ccccc12.Cl [N,N-Dipropyltryptamine hydrochloride]  WAGA cells (VP-MCC)  condition not met
3          CCC(=O)OC1(c2ccccc2)CCN(C)CC1.Cl  WAGA cells (VP-MCC)  condition not met
4  CNC(=O)[C@H](CC1=CN=C2C=CCC=C12)NC(=O)[C@@H](CC(=O)NO)CC(C)C  WAGA cells (VP-MCC)      condition met
5  CC(O)C(=O)O.CCOc1ccc2nc3cc(N)ccc3c(N)c2c1.O [Ethacridine lactate hydrate]  WAGA cells (VP-MCC)      condition met

QUERY: Does the reported WAGA_AUC of Cl.Oc1ccc2c3c1O[C@H]1[C@@H](O)C=C[C@H]4[C@@H](C2)NCC[C@@]341 [N-Normorphine hydrochloride] stay below 400?
RESULT: condition not met

QUERY: Ok, now CC(C)(C)CC(C)(C)c1ccc(OCCOCC[N+](C)(C)Cc2ccccc2)cc1 [Benzethonium chloride]
RESULT: condition met

QUERY: Ok, now CC[N+](CC)(CC)CCOc1ccc(/C=C/c2ccccc2)cc1 [Stilonium iodide]
RESULT: condition met

QUERY: Ok, now `COc1cc(C[C@@H](C)N)c(OC)cc1C.Cl`
RESULT: condition met

QUERY: Ok, now `CS(=O)(=O)Oc1ccc2c(NC(N)=O)c(C(=O)c3ccc(Cl)cc3Cl)oc2c1`
RESULT: condition met

QUERY: Ok, now `CC(C)CN(C[C@@H](O)[C@H](Cc1ccccc1)NC(=O)O[C@H]1CO[C@H]2OCC[C@H]21)S(=O)(=O)c1ccc(N)cc1`
RESULT: condition not met

QUERY: Ok, now COc1ccc2c3c1O[C@H]1[C@@H](O)C=C[C@H]4[C@@H](C2)N(C)CC[C@@]341 [Codeine hydrochloride]
RESULT: condition met

QUERY: Ok, now CCCCCCCCCCCC[N+](C)(C)CCOc1ccccc1 [Domiphen bromide]
RESULT: condition met
